// reported Ki per item
# tgt: Trypanothione reductase (Trypanosoma cruzi, UniProt P28593)
# Sequence (P28593 whole entry): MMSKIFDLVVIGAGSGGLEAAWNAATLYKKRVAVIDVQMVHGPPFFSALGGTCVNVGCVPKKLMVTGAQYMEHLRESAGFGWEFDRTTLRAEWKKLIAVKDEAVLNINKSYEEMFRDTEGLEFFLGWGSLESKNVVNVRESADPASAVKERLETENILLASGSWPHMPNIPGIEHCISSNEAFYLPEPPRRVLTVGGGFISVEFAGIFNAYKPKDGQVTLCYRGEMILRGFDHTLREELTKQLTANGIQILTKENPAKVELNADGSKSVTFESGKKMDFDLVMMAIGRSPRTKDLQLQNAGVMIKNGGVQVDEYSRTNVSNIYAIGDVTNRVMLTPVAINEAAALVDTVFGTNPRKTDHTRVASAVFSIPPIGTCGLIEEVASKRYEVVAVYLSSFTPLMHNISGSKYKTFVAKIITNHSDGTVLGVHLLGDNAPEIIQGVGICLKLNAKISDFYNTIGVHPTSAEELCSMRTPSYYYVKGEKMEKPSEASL
# procedure summary: The competitive inhibitory activity against trypanothione reductase was evaluated from Lineweaver Burk plots
# experimental parameters: read-out: Ki app
endpoint: Ki (µM)

compound	tgt	units of measure	test value
CCN(CC)CCCCC(C)Nc1c2ccccc2nc2cc(Cl)ccc12 (stereo not given)	Trypanothione reductase (Trypanosoma cruzi, UniProt P28593)	µM	11
CCN(CC)CCCC(C)Nc1c2ccc(Cl)cc2nc2ccc(OC)cc12 (stereo not given)	Trypanothione reductase (Trypanosoma cruzi, UniProt P28593)	µM	19
COc1ccc2nc3cc(Cl)ccc3c(N)c2c1	Trypanothione reductase (Trypanosoma cruzi, UniProt P28593)	µM	7
Nc1c2c(nc3cc(Cl)ccc13)CCCC2	Trypanothione reductase (Trypanosoma cruzi, UniProt P28593)	µM	80
CCN(CC)CCCCC(C)Nc1c2ccc(Cl)cc2nc2ccc(OC)cc12 (stereo not given)	Trypanothione reductase (Trypanosoma cruzi, UniProt P28593)	µM	5.5
Nc1c2ccccc2nc2ccccc12	Trypanothione reductase (Trypanosoma cruzi, UniProt P28593)	µM	38
Nc1c2ccccc2nc2cc(Cl)ccc12	Trypanothione reductase (Trypanosoma cruzi, UniProt P28593)	µM	43
Nc1c2c(nc3ccccc13)CCCC2	Trypanothione reductase (Trypanosoma cruzi, UniProt P28593)	µM	140
CCN(CC)CCCC(C)Nc1c2ccccc2nc2cc(Cl)ccc12 (stereo not given)	Trypanothione reductase (Trypanosoma cruzi, UniProt P28593)	µM	10
CCN(CC)CCCC(C)Nc1c2ccccc2nc2ccc(OC)cc12 (stereo not given)	Trypanothione reductase (Trypanosoma cruzi, UniProt P28593)	µM	27
